# % inhibition of HIV-1 at 200-fold dilution per entry
system: HIV-1 BZ 167; type: cell-based
Value expressed in %; do not type the unit.

RGDAQYIKANSKFIGITELKKIWNNMTWMQWDK (RGDAQYIKANSKFIGITELKKIWNNMTWMQWDK) [R33K] :: 64
AQYIKANSKFIGITELKKCSLEQIWNNMTWMQWDK (AQYIKANSKFIGITELKKCSLEQIWNNMTWMQWDK) [A35K] :: 42
CKSLEQIWNNMTWMQWDK [C18K] :: 65

Q: Reported % inhibition of HIV-1 at 200-fold dilution, substance KQIINMWQVVGKAMYAKKCKSLEQIWNNMTWMQWDK (KQIINMWQVVGKAMYAKKCKSLEQIWNNMTWMQWDK) : ____
Result: 45

Q: Now consider AQYIKANSKFIGITELKKIWNNMTWMQWDK (AQYIKANSKFIGITELKKIWNNMTWMQWDK) [A30K] .
Result: 45

// provenance: patent US8790898B2
